Listing: MBC of selected molecules
Tested on: Mycobacterium avium
protocol-text: MBC test (plating on agar, CFU count)
Type: cell-based
protocol-conditions: Mycobacterium avium, MH Culture Medium; Mycobacterium avium Smooth; read-out: Minimum Bactericidal Concentration (MBC)

Reference set, count: 3
CO[C@H]1/C=C/O[C@@]2(C)Oc3c(C)c(O)c4c(O)c(c(/C=N/N5CCN(C)CC5)c(O)c4c3C2=O)NC(=O)/C(C)=C\C=C\[C@H](C)[C@H](O)[C@@H](C)[C@@H](O)[C@@H](C)[C@H](OC(C)=O)[C@@H]1C [Rifampicin, rifampicin]    4 µg/mL
O=C(O)c1cn(C2CC2)c2cc(N3CCNCC3)c(F)cc2c1=O [Ciprofloxacin, ciprofloxacin]    > 64 µg/mL
CC[C@H]1OC(=O)[C@H](C)[C@@H](O[C@H]2C[C@@](C)(OC)[C@@H](O)[C@H](C)O2)[C@H](C)[C@@H](O[C@@H]2O[C@H](C)C[C@H](N(C)C)[C@H]2O)[C@](C)(OC)C[C@@H](C)C(=O)[C@H](C)[C@@H](O)[C@]1(C)O [Clarithromycin]    > 64 µg/mL

Consider the additional molecule presented here.
[in] What MBC value was documented for this molecule, Cc1ncc([N+](=O)[O-])n1CCO [Metronidazole, metronidazole] ?
[out] > 64 µg/mL

* * *

Tested on: Mycobacterium intracellulare
protocol-text: MIC by micro broth dilution method (resazurin microtiter assay)
Assay type: cell-based
protocol-conditions: Mycobacterium intracellulare, MH Culture Medium; clinically isolated strain Intracellulare (S290); read-out: Minimum Inhibitory Concentration (MIC)
# strict inequality: MIC < 2 mg/L yields MET, everything else yields NOT MET

Cc1ncc([N+](=O)[O-])n1CCO    NOT MET
CO[C@H]1/C=C/O[C@@]2(C)Oc3c(C)c(O)c4c(O)c(c(/C=N/N5CCN(C)CC5)c(O)c4c3C2=O)NC(=O)/C(C)=C\C=C\[C@H](C)[C@H](O)[C@@H](C)[C@@H](O)[C@@H](C)[C@H](OC(C)=O)[C@@H]1C    NOT MET
CO[C@H]1/C=C/O[C@@]2(C)Oc3c(C)c(O)c4c(O)c(c(/C=N/N5CCC(N(C)C6([C@@H]7CCN(c8c(F)cn9c(=O)c(C(=O)O)cc(C%10CC%10)c9c8C)C7)CC6)CC5)c(O)c4c3C2=O)NC(=O)/C(C)=C\C=C\[C@H](C)[C@H](O)[C@@H](C)[C@@H](O)[C@@H](C)[C@H](CC(C)=O)[C@@H]1C    NOT MET
CC[C@H]1OC(=O)[C@H](C)[C@@H](O[C@H]2C[C@@](C)(OC)[C@@H](O)[C@H](C)O2)[C@H](C)[C@@H](O[C@@H]2O[C@H](C)C[C@H](N(C)C)[C@H]2O)[C@](C)(OC)C[C@@H](C)C(=O)[C@H](C)[C@@H](O)[C@]1(C)O    MET

# ---- query compound ----
[in] Consider CO[C@H]1/C=C/O[C@@]2(C)Oc3c(C)c(O)c4c(c3C2=O)C2=NC3(CCN(CC(C)C)CC3)NC2=C(NC(=O)/C(C)=C\C=C\[C@H](C)[C@H](O)[C@@H](C)[C@@H](O)[C@@H](C)[C@H](OC(C)=O)[C@@H]1C)C4=O . Does its MIC lie strictly below 2 mg/L?
[out] MET

* * *

Test system: Mycobacterium avium
protocol-text: MIC by micro broth dilution method (resazurin microtiter assay)
Assay type: cell-based
protocol-conditions: 7H9 Broth, Mycobacterium avium Rough, read-out: Minimum Inhibitory Concentration (MIC)
Recorded MIC, one value per entry.

NCC[C@H](O)C(=O)N[C@@H]1C[C@H](N)[C@@H](O[C@H]2O[C@H](CN)[C@@H](O)[C@H](O)[C@H]2O)[C@H](O)[C@H]1O[C@H]1O[C@H](CO)[C@@H](O)[C@H](N)[C@H]1O    > 64 mg/L
CO[C@H]1/C=C/O[C@@]2(C)Oc3c(C)c(O)c4c(O)c(c(/C=N/N5CCN(C)CC5)c(O)c4c3C2=O)NC(=O)/C(C)=C\C=C\[C@H](C)[C@H](O)[C@@H](C)[C@@H](O)[C@@H](C)[C@H](OC(C)=O)[C@@H]1C    8 mg/L
CO[C@H]1/C=C/O[C@@]2(C)Oc3c(C)c(O)c4c(O)c(c(/C=N/N5CCC(N(C)C6([C@@H]7CCN(c8c(F)cn9c(=O)c(C(=O)O)cc(C%10CC%10)c9c8C)C7)CC6)CC5)c(O)c4c3C2=O)NC(=O)/C(C)=C\C=C\[C@H](C)[C@H](O)[C@@H](C)[C@@H](O)[C@@H](C)[C@H](CC(C)=O)[C@@H]1C    > 64 mg/L

[in] Consider the molecule shown here: CC[C@H]1OC(=O)[C@H](C)[C@@H](O[C@H]2C[C@@](C)(OC)[C@@H](O)[C@H](C)O2)[C@H](C)[C@@H](O[C@@H]2O[C@H](C)C[C@H](N(C)C)[C@H]2O)[C@](C)(OC)C[C@@H](C)C(=O)[C@H](C)[C@@H](O)[C@]1(C)O What is its recorded MIC?
[out] > 64 mg/L

* * *

Tested on: Mycobacterium avium
protocol-text: MBC test (plating on agar, CFU count)
Format: cell-based
protocol-conditions: Mycobacterium avium, MH Culture Medium; Mycobacterium avium Smooth; read-out: Minimum Bactericidal Concentration (MBC)
Each item that follows carries a reported MBC.

[in] Which MBC is reported for this compound? NCC[C@H](O)C(=O)N[C@@H]1C[C@H](N)[C@@H](O[C@H]2O[C@H](CN)[C@@H](O)[C@H](O)[C@H]2O)[C@H](O)[C@H]1O[C@H]1O[C@H](CO)[C@@H](O)[C@H](N)[C@H]1O [Amikacin, amikacin]
[out] > 64 µg/mL

[in] // next record CO[C@H]1/C=C/O[C@@]2(C)Oc3c(C)c(O)c4c(O)c(c(/C=N/N5CCC(N(C)C6([C@@H]7CCN(c8c(F)cn9c(=O)c(C(=O)O)cc(C%10CC%10)c9c8C)C7)CC6)CC5)c(O)c4c3C2=O)NC(=O)/C(C)=C\C=C\[C@H](C)[C@H](O)[C@@H](C)[C@@H](O)[C@@H](C)[C@H](CC(C)=O)[C@@H]1C [Compound I]
[out] 16 µg/mL

* * *

Tested on: Mycobacterium avium
protocol-text: MIC by micro broth dilution method (resazurin microtiter assay)
Type: cell-based
protocol-conditions: MH Culture Medium, clinically isolated strain Avium (S123), read-out: Minimum Inhibitory Concentration (MIC)
measure: MIC (µg/mL)
Reply with just the number (in µg/mL).

Example results:
COc1c(N2C[C@@H]3CCCN[C@@H]3C2)c(F)cc2c(=O)c(C(=O)O)cn(C3CC3)c12    0.5
Cc1ncc([N+](=O)[O-])n1CCO    8
CO[C@H]1/C=C/O[C@@]2(C)Oc3c(C)c(O)c4c(c3C2=O)C2=NC3(CCN(CC(C)C)CC3)NC2=C(NC(=O)/C(C)=C\C=C\[C@H](C)[C@H](O)[C@@H](C)[C@@H](O)[C@@H](C)[C@H](OC(C)=O)[C@@H]1C)C4=O    0.0625
CO[C@H]1/C=C/O[C@@]2(C)Oc3c(C)c(O)c4c(O)c(c(/C=N/N5CCC(N(C)C6([C@@H]7CCN(c8c(F)cn9c(=O)c(C(=O)O)cc(C%10CC%10)c9c8C)C7)CC6)CC5)c(O)c4c3C2=O)NC(=O)/C(C)=C\C=C\[C@H](C)[C@H](O)[C@@H](C)[C@@H](O)[C@@H](C)[C@H](CC(C)=O)[C@@H]1C    8
CO[C@H]1/C=C/O[C@@]2(C)Oc3c(C)c(O)c4c(O)c(c(/C=N/N5CCN(C)CC5)c(O)c4c3C2=O)NC(=O)/C(C)=C\C=C\[C@H](C)[C@H](O)[C@@H](C)[C@@H](O)[C@@H](C)[C@H](OC(C)=O)[C@@H]1C    8

Could you now look at the following compound, please?
[in] Record CC[C@H]1OC(=O)[C@H](C)[C@@H](O[C@H]2C[C@@](C)(OC)[C@@H](O)[C@H](C)O2)[C@H](C)[C@@H](O[C@@H]2O[C@H](C)C[C@H](N(C)C)[C@H]2O)[C@](C)(OC)C[C@@H](C)C(=O)[C@H](C)[C@@H](O)[C@]1(C)O : what is its MIC with Mycobacterium avium?
[out] 0.5

* * *

System: Mycobacterium intracellulare
protocol-text: MIC by micro broth dilution method (resazurin microtiter assay)
Format: cell-based
protocol-conditions: Mycobacterium intracellulare, MH Culture Medium; clinically isolated strain Intracellulare (S261); read-out: Minimum Inhibitory Concentration (MIC)
measure: log10 MIC (log10 of the value in mg/L)
A difference of one corresponds to tenfold MIC; all values are log10 with MIC in mg/L.

CO[C@H]1/C=C/O[C@@]2(C)Oc3c(C)c(O)c4c(c3C2=O)C2=NC3(CCN(CC(C)C)CC3)NC2=C(NC(=O)/C(C)=C\C=C\[C@H](C)[C@H](O)[C@@H](C)[C@@H](O)[C@@H](C)[C@H](OC(C)=O)[C@@H]1C)C4=O    -0.60
Cc1ncc([N+](=O)[O-])n1CCO    1.20
CO[C@H]1/C=C/O[C@@]2(C)Oc3c(C)c(O)c4c(O)c(c(/C=N/N5CCC(N(C)C6([C@@H]7CCN(c8c(F)cn9c(=O)c(C(=O)O)cc(C%10CC%10)c9c8C)C7)CC6)CC5)c(O)c4c3C2=O)NC(=O)/C(C)=C\C=C\[C@H](C)[C@H](O)[C@@H](C)[C@@H](O)[C@@H](C)[C@H](CC(C)=O)[C@@H]1C    1.81
COc1c(N2C[C@@H]3CCCN[C@@H]3C2)c(F)cc2c(=O)c(C(=O)O)cn(C3CC3)c12    0.30
CO[C@H]1/C=C/O[C@@]2(C)Oc3c(C)c(O)c4c(O)c(c(/C=N/N5CCN(C)CC5)c(O)c4c3C2=O)NC(=O)/C(C)=C\C=C\[C@H](C)[C@H](O)[C@@H](C)[C@@H](O)[C@@H](C)[C@H](OC(C)=O)[C@@H]1C    1.20

[in] Param item = CC[C@H]1OC(=O)[C@H](C)[C@@H](O[C@H]2C[C@@](C)(OC)[C@@H](O)[C@H](C)O2)[C@H](C)[C@@H](O[C@@H]2O[C@H](C)C[C@H](N(C)C)[C@H]2O)[C@](C)(OC)C[C@@H](C)C(=O)[C@H](C)[C@@H](O)[C@]1(C)O ; retrieve measured log10 MIC.
[out] 0.00
